For each record, write down the corresponding normalized growth.
# experimental-details: chemical genetic growth profiling, strain panel (AID 1159580);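 further: tested at 20 µM; growth read once vehicle control cultures reached saturation at 30 °C; 1 = growth at the plate median or of vehicle wells; lower values mean less growth of the strain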
# experimental-setup: S. cerevisiae deletion strains, growth OD, locus YPR111W, strain DBF20, hits give low values
About 2,000 (36%) of roughly 5,500 compounds were called active. Another 18% or so got no clear call; they are omitted. The list shows a part of the results.

Record request: normalized growth value, item O=C(Nc1ccccc1)Nc1ccc(Cl)cc1[N+](=O)[O-]
0.963 (inactive)

Given the entry COCCCNC(=S)N/N=C\c1cc(Br)ccc1O , report its measured normalized growth.
0.967 (inactive)

Need normalized growth of CCOC(=O)N/N=C\c1cc(Cl)cc(Cl)c1O , thanks.
0.92 (inactive)

Form field: reported normalized growth of O=[N+]([O-])c1cc(Cl)cc([N+](=O)[O-])c1Nc1ccccc1
0.934 (inactive)

Quick one: normalized growth of O=S(=O)(CS(=O)(=O)Oc1ccc(Cl)c(Cl)c1)Oc1ccc(Cl)c(Cl)c1 ?
0.938 (inactive)

Report normalized growth for Oc1c(Br)cc(Br)cc1/C=N\n1cnnc1 please.
0.918 (inactive)

Can you share its normalized growth? I mean this compound: Cc1ccc(C)n1-c1ccc(/C=C2/C(=O)Nc3ccccc32)cc1
0.958 (inactive)

Consider the compound CC(C)(C)C(=O)NC(=S)N/N=C\c1cc(Cl)cc(Cl)c1O and give its measured normalized growth.
0.954 (inactive)

What measured normalized growth goes with Oc1c(Br)cc(Br)cc1C=Nc1ccccn1 ?
0.953 (inactive)

I am curious: what normalized growth value has been reported for CCNC(=S)N/N=C\c1cc(Cl)cc(Cl)c1O ?
0.938 (inactive)

====

# experimental-details: chemical genetic growth profiling, strain panel (AID 1159580);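 further: tested at 20 µM; growth read once vehicle control cultures reached saturation at 30 °C; 1 = growth at the plate median or of vehicle wells; lower values mean less growth of the strain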
# experimental-setup: S. cerevisiae deletion strains, growth OD, locus YLR058C, strain SHM2, hits give low values
Out of some 5,500 compounds screened, about 2,000 (36%) were called active. Roughly 18% stayed inconclusive and do not appear here. The list shows a part of the results.
Assign labels as follows, please: MET for normalized growth below 1; NOT MET for normalized growth equal to or exceeding 1.

I'd appreciate it if you could check whether NS(=O)(=O)c1cc(C2(O)NC(=O)c3ccccc32)ccc1Cl (stereo not given) has normalized growth smaller than 1.
NOT MET

Hello, is normalized growth of the following molecule strictly smaller than 1? COc1c2ccoc2cc2oc(=O)ccc12
MET

Decide: normalized growth of O=c1c(O)c(-c2ccc(O)c(O)c2)oc2cc(O)cc(O)c12 strictly below 1?
MET

Criterion: normalized growth strictly below 1. Is it met by C[C@@H]1CC[C@@]2(NC1)O[C@H]1C[C@H]3C4CC=C5C[C@@H](O)CC[C@]5(C)C4CC[C@]3(C)C1[C@@H]2C (stereo not given in full) ?
MET

Hello, I'm reviewing records and need to know if normalized growth of CCCCCCCCCCCCCCCCCC(=O)OC(CC(=O)O)C[N+](C)(C)C (stereo not given) is below 1. Could you check?
MET

====

# experimental-details: chemical genetic growth profiling, strain panel (AID 1159580);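 further: tested at 20 µM; growth read once vehicle control cultures reached saturation at 30 °C; 1 = growth at the plate median or of vehicle wells; lower values mean less growth of the strain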
# experimental-setup: S. cerevisiae deletion strains, growth OD, locus YCL069W, strain vba3, hits give low values
Hit rate of the full screen: of about 5,500 compounds, about 2,000 (36%) were called active. About 18% were inconclusive and are not listed. The list shows a part of the results.
endpoint-name: normalized growth
Answer with a bare number; do not write a unit.

Name the recorded normalized growth for CC1(C)C(=O)C=C[C@@]2(C)C1C[C@@H](O)[C@]1(C)C2CC[C@@]2(C)[C@H](c3ccoc3)OC(=O)[C@H]3O[C@]321 (some centres undefined) .
0.998

Query: normalized growth; subject: CC1(C)C2CC(=O)[C@]3(C)C(CC[C@@]4(C)[C@H](c5ccoc5)OC(=O)C5OC543)[C@@]2(C)[C@@H](O)C[C@H]1O (some centres undefined)
1.02

What value of measured normalized growth is listed for CC1(C)C2CC(=O)[C@]3(C)C(CC[C@@]4(C)[C@H](c5ccoc5)OC(=O)[C@H]5O[C@]543)[C@@]2(C)C(=O)C[C@H]1O (some centres undefined) ?
1.01

Fill in the blank: the reported normalized growth of C=C[C@H]1CN2CC[C@H]1C[C@@H]2[C@@H](OC(=O)OCC)c1ccnc2ccc(OC)cc12 is ____.
0.998
